- Test system: BT-474 Tam2
- test description: viability inhibition at highest dose (% inhibition); higher = more growth inhibition
- measurement setup: 4-OH-tamoxifen in medium 1 µM; 72 h
# viability inhibition at highest dose per entry
Lab note: jot down the number only; don't add units.

| molecule | viability inhibition at highest dose |
| --- | --- |
| C[C@]12CC[C@@H]3c4ccc(O)cc4C[C@@H](CCCCCCCCC[S+]([O-])CCCC(F)(F)C(F)(F)F)[C@H]3[C@@H]1CC[C@@H]2O (some centres not stated) [Fulvestrant] (drug 1000 nM) | 4.97 |
| C#Cc1cccc(Nc2ncnc3cc(OCCOC)c(OCCOC)cc23)c1 [Erlotinib] (drug 10000 nM) | 87.1 |
| COCC1(CO)C(=O)C2CCN1CC2 (configuration not stated) [Prima-1 Met] (drug 10000 nM) | 0.869 |
| COC1=C2C[C@@H](C)C[C@H](OC)[C@H](O)[C@@H](C)/C=C(\C)[C@H](OC(N)=O)[C@@H](OC)/C=C\C=C(/C)C(=O)NC(=CC1=O)C2=O [Geldanamycin] (drug 10000 nM) | 82.1 |
| Oc1ncc(N(CCCl)CCCl)c(O)n1 [Uracil mustard] (drug 10000 nM) | 6.63 |
| CN1CC[C@H](c2c(O)cc(O)c3c(=O)cc(-c4ccccc4Cl)oc23)[C@H](O)C1 [Alvocidib (Flavopiridol)] (drug 10000 nM) | 89.5 |

Dear colleague, please send me the reported viability inhibition at highest dose for COC(=O)C[C@](O)(CCCC(C)(C)O)C(=O)O[C@@H]1C(OC)=C[C@]23CCCN2CCc2cc4c(cc2[C@H]13)OCO4 [Omacetaxine (Homoharringtonine)] (drug 10000 nM) when you can.
73.4

# return recorded viability inhibition at highest dose for entry CO[C@@]12[C@H](COC(N)=O)C3=C(C(=O)C(C)=C(N)C3=O)N1C[C@@H]1N[C@@H]12 [Mitomycin C] (drug 10000 nM)
0.827

Note viability inhibition at highest dose for the molecule shown: COc1cccc2c1C(=O)c1c(O)c3c(c(O)c1C2=O)C[C@@](O)(C(C)=O)C[C@@H]3O[C@H]1C[C@H](N)[C@H](O)[C@H](C)O1 [Daunorubicin] (drug 1000 nM)
32.7

Output viability inhibition at highest dose of Cn1cnc2c(F)c(Nc3ccc(Br)cc3F)c(C(=O)NOCCO)cc21 [MEK-162 (ARRY-162)] (drug 1000 nM)
-1.22

Respond only with viability inhibition at highest dose recorded for CS(=O)(=O)c1ccc(C(=O)Nc2ccc(Cl)c(-c3ccccn3)c2)c(Cl)c1 [Vismodegib] (drug 10000 nM)
6.56

Determine from records and report viability inhibition at highest dose for CO[C@H]1C[C@@H]2CC[C@@H](C)[C@@](O)(O2)C(=O)C(=O)N2CCCC[C@H]2C(=O)O[C@H]([C@H](C)C[C@@H]2CC[C@@H](OC(=O)C(C)(CO)CO)[C@H](OC)C2)CC(=O)[C@H](C)/C=C(\C)[C@@H](O)[C@@H](OC)C(=O)[C@H](C)C[C@H](C)/C=C/C=C/C=C/1C [Temsirolimus] (drug 100 nM)
14.5

---

Reported viability inhibition at highest dose values for the following compounds.
- System: ZR-75-1
- test description: viability inhibition at highest dose (% inhibition); higher = more growth inhibition
- measurement setup: 4-OH-tamoxifen in medium 1 µM; 72 h
A bare number is all that is needed in reply.

| compound | system tested | recorded result |
| --- | --- | --- |
| CC(C)c1c(C(=O)Nc2ccccc2)c(-c2ccccc2)c(-c2ccc(F)cc2)n1CC[C@@H](O)C[C@@H](O)CC(=O)O [Atorvastatin] (drug 10000 nM) | ZR-75-1 | 36.5 |

# return viability inhibition at highest dose for O=C(CCCCCCC(=O)Nc1ccccc1)NO [Vorinostat] (drug 10000 nM) , test system: ZR-75-1
32.9

Give viability inhibition at highest dose only, for C[C@]12CC[C@H](O)CC1=CC[C@@H]1[C@@H]2CC[C@]2(C)C(c3cccnc3)=CC[C@@H]12 [Abiraterone (CB-7598)] (drug 5000 nM) , using ZR-75-1 data.
-7.24

---

- System: ZR-75-1
- test description: relative IC50 (midpoint of fitted logistic curve, plateau may be below 50% inhibition; CellTiter-Glo viability); higher = less potent
- measurement setup: 4-OH-tamoxifen in medium 1 µM; 72 h
reported endpoint: relative IC50

| smiles string | recorded result |
| --- | --- |
| NCC(=O)CCC(=O)O | > 10 µM |

Answer with the recorded relative IC50 of CN(C)/N=N/c1[nH]cnc1C(N)=O only.
> 10 µM

Determine its reported relative IC50: Cc1[nH]c2ccccc2c1CCNCc1ccc(/C=C/C(=O)NO)cc1
0.0817 µM

Determine its reported relative IC50: NC(=O)c1ccc(I)c([N+](=O)[O-])c1
> 10 µM

Return the recorded relative IC50 value; entry: Nc1nc(F)nc2c1ncn2[C@@H]1O[C@H](CO)[C@@H](O)[C@@H]1O
> 10 µM

---

- System: BT-474
- test description: drug sensitivity score (DSS) (DSS (dimensionless)); higher = more sensitive; extreme values may be limits of the assay
- measurement setup: 4-OH-tamoxifen in medium 1 µM; 72 h
reported endpoint: drug sensitivity score
Answer field: number only, no words.

| compound | system tested | reported endpoint | recorded result |
| --- | --- | --- | --- |
| COc1cc2c(cc1O)CC[C@@H]1[C@@H]2CC[C@]2(C)[C@@H](O)CC[C@@H]12 [2-methoxyestradiol (Panzem)] | BT-474 | drug sensitivity score | 3.93 |

Lab note: record drug sensitivity score of C[C@]12CC[C@@H]3c4ccc(OC(=O)N(CCCl)CCCl)cc4CC[C@H]3[C@@H]1CC[C@@H]2O [Estramustine] tested on BT-474.
0

Given CC[C@@H]1C(=O)OC[C@@H]1Cc1cncn1C [Pilocarpine] , report its drug sensitivity score on BT-474.
0

Quote drug sensitivity score with test system BT-474 for CCN(CC)CCNC(=O)c1c(C)[nH]c(/C=C2\C(=O)Nc3ccc(F)cc32)c1C
1.81

Please tell me the measured drug sensitivity score for C[C@@]1(C(=O)Nc2ccc(F)nc2)CCCN1c1nc(Nc2cc(C3CC3)n[nH]2)c2cccn2n1 ; system: BT-474.
0.473

Report value only: drug sensitivity score, BT-474, CC(=O)[C@]1(O)Cc2c(O)c3c(c(O)c2[C@@H](O[C@H]2C[C@H](N)[C@H](O)[C@H](C)O2)C1)C(=O)c1ccccc1C3=O [Idarubicin]
4.91

Lab note: record drug sensitivity score of OC[C@H]1O[C@@H](n2cnc3c2N=CNC[C@H]3O)C[C@@H]1O [Pentostatin] tested on BT-474.
0.0318

Tell me drug sensitivity score of CC1=C(/C=C/C(C)=C/C=C/C(C)=C/C(=O)O)C(C)(C)CCC1 [Tretinoin] when tested on BT-474.
0

Output reported drug sensitivity score of the compound COc1cc(Nc2ncc(F)c(Nc3ccc4c(n3)NC(=O)C(C)(C)O4)n2)cc(OC)c1OC [Tamatinib (R406)] on BT-474.
0

Enter recorded drug sensitivity score with BT-474 for Nc1nc2[nH]cnc2c(=S)[nH]1 [Thioguanine] here.
1.03

Report value: drug sensitivity score, system: BT-474, compound: O=P1(NCCCl)OCCCN1CCCl (configuration not stated) [Ifosfamide]
0

For BT-474, give the measured drug sensitivity score of the entry O=C(CCBr)N1CCN(C(=O)CCBr)CC1 [Pipobroman]
0

Output reported drug sensitivity score of the compound NCC(=O)CCC(=O)O [Aminolevulinic acid] on BT-474.
0

Consider the compound CNC(=O)c1cc(Oc2ccc(NC(=O)Nc3ccc(Cl)c(C(F)(F)F)c3)cc2)ccn1 [Sorafenib] tested on BT-474; state its drug sensitivity score.
0

Enter drug sensitivity score (test system BT-474) for Cc1c(C(=O)Nc2ccc(N3C[C@@H](C)O[C@@H](C)C3)nc2)cccc1-c1ccc(OC(F)(F)F)cc1 [Erismodegib (NVP-LDE225)]
1.78

Name the recorded drug sensitivity score of COC(=O)C[C@](O)(CCCC(C)(C)O)C(=O)O[C@@H]1C(OC)=C[C@]23CCCN2CCc2cc4c(cc2[C@H]13)OCO4 [Omacetaxine (Homoharringtonine)] , assay system BT-474.
6.25

Return reported drug sensitivity score for target or system BT-474, item COc1ncc(-c2ccc3nccc(-c4ccnnc4)c3c2)cc1NS(=O)(=O)c1ccc(F)cc1F .
25.9

---

- Test system: MCF-7
- test description: relative IC50 (midpoint of fitted logistic curve, plateau may be below 50% inhibition; CellTiter-Glo viability); higher = less potent
- measurement setup: 4-OH-tamoxifen in medium 0 µM; 72 h
reported endpoint: relative IC50

Example molecules with recorded relative IC50:
| molecule | relative IC50 |
| --- | --- |
| Cn1cc(C2=Nc3cc(NC(=O)C(N)C4CCCCC4)cc4c3C2=CNNC4=O)cn1 (stereo not drawn) | 1890 nM |
| COc1c(C)cnc(Cn2cnc3c(Cl)nc(N)nc32)c1C [BIIB021] | 110 nM |
| COc1ccc(S(=O)(=O)Nc2cccnc2Nc2ccc(O)cc2)cc1 [ABT-751] | 615 nM |
| COc1cc2c(N3CCN(C(=O)Nc4ccc(OC(C)C)cc4)CC3)ncnc2cc1OCCCN1CCCCC1 [Tandutinib] | > 1000 nM |
| CCN(CC)CCCC(C)Nc1ccnc2cc(Cl)ccc12 (stereo not drawn) [Chloroquine] | > 990000 nM |

Answer with the recorded relative IC50 for the molecule listed here: C[C@]12CC[C@@H]3c4ccc(O)cc4C[C@@H](CCCCCCCCC[S+]([O-])CCCC(F)(F)C(F)(F)F)[C@H]3[C@@H]1CC[C@@H]2O (stereo partly drawn) [Fulvestrant]
6.43 nM

Identify relative IC50 associated with the molecule O=C1CN2Cc3c(ccc(Cl)c3Cl)N=C2N1 [Anagrelide]
> 10000 nM

Hello, please tell me recorded relative IC50 for this one: CS(=O)(=O)N1CCN(Cc2cc3nc(-c4cccc5[nH]ncc45)nc(N4CCOCC4)c3s2)CC1 [Pictilisib (GDC-0941)]
201 nM

Please give the documented relative IC50 of CC(C)C(=O)Nc1ccc([N+](=O)[O-])c(C(F)(F)F)c1 [Flutamide]
> 10000 nM

Determine from records and report relative IC50 for N.N.[Cl][Pt][Cl] [Cisplatin]
> 10000 nM

For the molecule CCN(CC)CCNC(=O)c1c(C)[nH]c(/C=C2\C(=O)Nc3ccc(F)cc32)c1C , give its reported relative IC50.
> 1000 nM

Please list relative IC50 recorded for the molecule NC(=O)c1ccc(I)c([N+](=O)[O-])c1
> 10000 nM

Identify relative IC50 associated with the molecule CNC(=O)c1ccc(N2C(=S)N(c3ccc(C#N)c(C(F)(F)F)c3)C(=O)C2(C)C)cc1F [Enzalutamide (MDV 3100)]
> 10000 nM

The origin of these recorded values is the supplement of paper PMC4932681.
